// provenance: patent US20230233569A1

Exercise: state measured pIC50 for each of the compounds provided.
experimental-system: KRAS G12C (Homo sapiens, UniProt P01116+P62937, G12C)
measurement-description: Ras-Raf disruption / FRET / MOA assay (BRAF RBD)
Assay type: biochemical
condition: Ras-Raf disruption, with Cyclophilin A; read-out: KRAS G12C FRET data IC50
Sequence (P01116 1-169 isoform P01116-2 G12C limits assumed): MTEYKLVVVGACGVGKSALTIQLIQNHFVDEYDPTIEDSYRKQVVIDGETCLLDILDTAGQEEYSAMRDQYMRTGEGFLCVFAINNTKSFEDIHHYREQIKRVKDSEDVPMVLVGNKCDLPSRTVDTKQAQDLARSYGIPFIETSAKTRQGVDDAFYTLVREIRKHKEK
Sequence (P62937 whole entry): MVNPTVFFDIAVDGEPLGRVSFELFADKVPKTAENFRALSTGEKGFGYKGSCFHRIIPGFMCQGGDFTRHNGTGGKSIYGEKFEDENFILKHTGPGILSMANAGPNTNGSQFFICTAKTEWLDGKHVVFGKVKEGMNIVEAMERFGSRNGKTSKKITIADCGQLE
pIC50: −log10 of the molar value.

Short answer for CCn1c(-c2cccnc2[C@H](C)OC)c2c3cc(ccc31)-c1csc(n1)C[C@H](NC(=O)[C@H](C(C)C)N(C)C(=O)N1CC[C@H](N(C)C(=O)[C@@H]3CN3)C1)C(=O)N1CCC[C@H](N1)C(=O)OCC(C)(C)C2 (atropisomer, axis not shown) [Example 229] : pIC50 was 6.00 to 7.00

Data point: CCn1c(-c2cccnc2[C@H](C)OC)c2c3cc(ccc31)-c1cccc(c1)C[C@H](NC(=O)[C@H](C(C)C)N(C)C(=O)[C@H]1CC[C@H](N=C=NC(C)C)C1)C(=O)N1CCC[C@H](N1)C(=O)OCC(C)(C)C2 [Example 124] ; pIC50 = 7.00 to 8.00

Noted for CCn1c(-c2cccnc2[C@H](C)OC)c2c3cc(ccc31)-c1cc(O)cc(c1)C[C@H](NC(=O)[C@H](C(C)C)N(C)C(=O)[C@H]1CN1)C(=O)N1CCC[C@H](N1)C(=O)OCC(C)(C)C2 [Example 112] : its pIC50 reads 6.00 to 7.00

For record CCn1c(-c2cccnc2[C@H](C)OC)c2c3cc(ccc31)-c1cccc(c1)C[C@H](NC(=O)[C@H](C1CCCC1)N1CC[C@]3(CCN(C(=O)[C@@H]4N[C@@H]4C4CC4)C3)C1=O)C(=O)N1CCC[C@H](N1)C(=O)OCC(C)(C)C2 [Example 313] the listed pIC50 is 6.00 to 7.00

# pIC50 of CCn1c(-c2cccnc2[C@H](C)OC)c2c3cc(ccc31)-c1cc(O)cc(c1)C[C@H](NC(=O)[C@H](C(C)C)N1CCC3(CN(C(=O)[C@@H]4CN4)C3)C1=O)C(=O)N1CCC[C@H](N1)C(=O)OCC(C)(C)C2 [Example 109] = > 8.00

The compound listed as CCn1c(-c2cnccc2COC)c2c3cc(ccc31)-c1cc(O)cc(c1)C[C@H](NC(=O)[C@H](C(C)C)N(C)C(=O)CN(C)C(=O)[C@H]1[C@@H](C(=O)OC)N1[S@+]([O-])C(C)(C)C)C(=O)N1CCC[C@H](N1)C(=O)OCC(C)(C)C2 (some centres unmarked) [Example 48] shows pIC50 equal to 7.00 to 8.00

Summary for this compound, CCn1c(-c2cccnc2[C@H](C)OC)c2c3cc(ccc31)-c1cc(O)cc(c1)C[C@H](NC(=O)[C@H](C(C)C)N(C)C(=O)[C@@]1(F)CCN(C(=O)[C@H]3CN3)C1)C(=O)N1CCC[C@H](N1)C(=O)OCC(C)(C)C2 [Example 171] : pIC50 is > 8.00

GET /value?item= CCn1c(-c2cccnc2[C@H](C)OC)c2c3cc(ccc31)-c1cc(O)cc(c1)C[C@H](NC(=O)[C@H](C(C)C)N(C)C(=O)[C@@H]1CCCN(C(=O)[C@H]3CN3)C1)C(=O)N1CCC[C@H](N1)C(=O)OCC(C)(C)C2 (atropisomer, axis not shown) [Example 237] &field=pIC50 returns 7.00 to 8.00

====

experimental-system: KRAS G12S (Homo sapiens, UniProt P01116+P62937, G12S)
Sequence (P01116 1-169 isoform P01116-2 G12S limits assumed, one chain of several): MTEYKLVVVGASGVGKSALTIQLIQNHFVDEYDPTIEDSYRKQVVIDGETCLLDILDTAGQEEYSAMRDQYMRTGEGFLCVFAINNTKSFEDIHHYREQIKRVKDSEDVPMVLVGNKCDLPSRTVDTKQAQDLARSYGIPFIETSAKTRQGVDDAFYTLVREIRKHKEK
measurement-description: Disruption of BRAF RBD interaction with Ras (FRET / MOA assay, with Cyclophilin A)
Format: biochemical
condition: read-out: KRAS G12S FRET data, IC50
pIC50: −log10 of the molar value.
Assignment: determine reported pIC50 for the given molecules.

Summary for this molecule, C=CC(=O)N1CC[C@H](C(=O)N(C)[C@H](C(=O)N[C@H]2Cc3cc(O)cc(c3)-c3ccc4c(c3)c(c(-c3ccc(CN(C)C)cc3)n4CC)CC(C)(C)COC(=O)[C@@H]3CCCN(N3)C2=O)C(C)C)C1 : pIC50 is 5.00 to 6.00

GET /value?item= CCn1c(-c2cccnc2[C@H](C)OC)c2c3cc(ccc31)-c1cccc(c1)C[C@H](NC(=O)[C@H](C(C)C)N(C)C(=O)[C@H]1CCN(CCO)C1)C(=O)N1CCC[C@H](N1)C(=O)OCC(C)(C)C2 &field=pIC50 returns 5.00 to 6.00

Sample CCn1c(-c2cccnc2[C@H](C)OC)c2c3cc(ccc31)-c1csc(n1)C[C@H](NC(=O)[C@H](C(C)C)N(C)C(=O)N1CC([C@@H](C)CO)C1)C(=O)N1CCC[C@H](N1)C(=O)OCC(C)(C)C2 (single isomer, unassigned) ; pIC50 observed: 6.00 to 7.00

The molecule listed as C=CC(=O)N1CCO[C@H]2CCN(C(=O)N(C)[C@H](C(=O)N[C@H]3Cc4nc(cs4)-c4ccc5c(c4)c(c(-c4cccnc4[C@H](C)OC)n5CC)CC(C)(C)COC(=O)C4CCCN(N4)C3=O)C(C)C)C[C@@H]21 (stereo partly shown) shows pIC50 equal to 7.00 to 8.00

====

experimental-system: KRAS G12C (Homo sapiens, UniProt P01116+P62937, G12C)
measurement-description: Ras-Raf disruption / FRET / MOA assay (BRAF RBD)
Format: biochemical
condition: Ras-Raf disruption, with Cyclophilin A; read-out: KRAS G12C FRET data IC50
Excerpt: Disruption of […] Ras-binding Domain (BRAF^RBD) Interaction with K-Ras by Compounds of the Invention (also Called a FRET Assay or an MOA Assay) Note—The following protocol describes a procedure for monitoring disruption of K-Ras G12C (GMP-PNP) binding to BRAF^RBD by a compound of the invention. This protocol may also be executed substituting other Ras proteins or nucleotides, such as K-Ras G12D and K-Ras G13D. […]
outcome-measure: IC50

So for CCn1c(-c2cccnc2[C@H](C)OC)c2c3cc(ccc31)-c1cc(cc(C(F)F)c1)C[C@H](NC(=O)[C@H](C1CCCC1)N1CC[C@]3(CCN(C(=O)[C@@H]4N[C@@H]4C4CC4)C3)C1)C(=O)N1CCC[C@H](N1)C(=O)OCC(C)(C)C2 , the logged IC50 turned out to be 100 to 1000 nM

Entry CCn1c(-c2cccnc2[C@H](C)OC)c2c3cc(ccc31)-c1cc(O)cc(c1)C[C@H](NC(=O)[C@H](C(C)C)N(C)C(=O)c1ccc(NC(=O)[C@@H]3CN3)cn1)C(=O)N1CCC[C@H](N1)C(=O)OCC(C)(C)C2 (atropisomer, axis not shown) ; IC50 = 100 to 1000 nM

====

experimental-system: KRAS G12C (Homo sapiens, UniProt P01116+P62937, G12C)
measurement-description: Disruption of BRAF RBD interaction with Ras (FRET / MOA assay, with Cyclophilin A)
Assay type: biochemical
condition: read-out: KRAS G12C FRET data, IC50
Sequence (P01116 1-169 isoform P01116-2 G12C): as the sequence (P01116 1-169 isoform P01116-2 G12C limits assumed) above
Sequence (P62937 whole entry): as the sequence (P62937 whole entry) above
pIC50: −log10 of the molar value.
Would you kindly list pIC50 for each of these molecules?

Form field, pIC50 with KRAS G12C (Homo sapiens, UniProt P01116+P62937, G12C), item CCn1c(-c2cccnc2[C@H](C)OC)c2c3cc(ccc31)-c1cc(O)cc(c1)C[C@H](NC(=O)[C@H](C(C)C)N(C)C(=O)[C@H]1CC[C@@H](CN(C)C)O1)C(=O)N1CCC[C@H](N1)C(=O)OCC(C)(C)C2 : 7.00 to 8.00

pIC50 of CCn1c(-c2cccnc2[C@H](C)OC)c2c3cc(ccc31)-c1csc(n1)C[C@H](NC(=O)[C@H](C(C)C)N(C)C(=O)[C@H]1CCN(C(=O)CN)C1)C(=O)N1CCC[C@H](N1)C(=O)OCC(C)(C)C2 , assay on KRAS G12C (Homo sapiens, UniProt P01116+P62937, G12C), is 6.00 to 7.00

Reading of pIC50 for CCn1c(-c2cccnc2[C@H](C)OC)c2c3cc(ccc31)-c1csc(n1)C[C@H](NC(=O)[C@H](C(C)C)N(C)C(=O)N1CC(OC)C1)C(=O)N1CC[C@H](C)[C@H](N1)C(=O)OCC(C)(C)C2 with KRAS G12C (Homo sapiens, UniProt P01116+P62937, G12C): 6.00 to 7.00

Record CCn1c(-c2cccnc2[C@H](C)OC)c2c3cc(ccc31)-c1csc(n1)C[C@H](NC(=O)[C@H](C(C)C)N(C)C(=O)N1CC(N(C)C)C1)C(=O)N1CCC[C@H](N1)C(=O)OCC(C)(C)C2 (racemic) / KRAS G12C (Homo sapiens, UniProt P01116+P62937, G12C), pIC50 recorded as 6.00 to 7.00

====

Would you kindly list pIC50 for each of these compounds?
experimental-system: KRAS G12V (Homo sapiens, UniProt P01116+P62937, G12V)
Sequence (P01116 1-169 isoform P01116-2 G12V limits assumed, one chain of several): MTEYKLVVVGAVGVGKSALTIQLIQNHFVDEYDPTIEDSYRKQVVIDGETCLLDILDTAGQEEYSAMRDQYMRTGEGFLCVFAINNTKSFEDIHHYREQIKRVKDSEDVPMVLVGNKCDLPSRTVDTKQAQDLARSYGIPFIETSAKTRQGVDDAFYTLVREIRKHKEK
measurement-description: Disruption of BRAF RBD interaction with Ras (FRET / MOA assay, with Cyclophilin A)
Assay type: biochemical
condition: KRAS G12V; read-out: KRAS G12V FRET data IC50
pIC50: −log10 of the molar value.

Measured pIC50 for this entry C=CC(=O)N1CC[C@H](C(=O)N(C)[C@H](C(=O)N[C@H]2Cc3cc(O)cc(c3)-c3ccc4c(c3)c(c(-c3c(CCOC)cccc3OC)n4CC)CC(C)(C)COC(=O)[C@@H]3CCCN(N3)C2=O)C(C)C)C1 [Example A080] on KRAS G12V (Homo sapiens, UniProt P01116+P62937, G12V): 5.00 to 6.00

Record CCn1c(-c2cccnc2[C@H](C)OC)c2c3cc(ccc31)-c1csc(n1)C[C@H](NC(=O)[C@H](C(C)C)N(C)C(=O)N1CC(N3CCCC3)C1)C(=O)N1CCC[C@H](N1)C(=O)OCC(C)(C)C2 [Example A329] ; system KRAS G12V (Homo sapiens, UniProt P01116+P62937, G12V); pIC50 = 6.00 to 7.00
